Attribute: Ki
biological target: hCA II (Homo sapiens); construct: gene CA2; assay: stopped-flow CO2 hydrase assay; format: biochemical; details: read-out: KI (μM)^a / hCA I

// below: answered compounds
O=C(O)CNC(=O)c1ccc(NC=CC(=O)c2ccccc2)cc1 [12a]    > 100 µM
O=C(O)CNC(=O)c1ccc(N/C=C/C(=O)c2ccc(Br)cc2)cc1 [12b]    > 100 µM

Okay, now this compound:
q: Suppose we examine the compound O=C(O)CNC(=O)c1ccc(N/C=C/C(=O)c2ccc3ccccc3c2)cc1 [12c] ; what Ki value has been reported?
a: > 100 µM

----------
target: hCA XII (Homo sapiens); construct: gene CA12; trans-membrane isoform; assay: stopped-flow CO2 hydrase assay; format: biochemical
OBSERVABLE: Ki (µM)

O=C(O)c1cccc(NC=CC(=O)c2ccc(Cl)cc2)c1 [5h]    8.6
O=C(O)c1cccc(NC=CC(=O)c2ccc(Br)cc2)c1 [5i]    13.9
O=C(O)c1ccc(NC=CC(=O)c2ccc(F)cc2)cc1 [5m]    1.1
O=C(O)c1cccc(NCCC(=O)c2ccccc2)c1 [7a]    7.4
O=C(/C=C\Nc1ccccc1C(=O)O)c1ccccc1 [5a]    6.4

(P) O=C(O)c1ccc(NC=CC(=O)c2ccc([N+](=O)[O-])cc2)cc1 [5p]
(Q) O=C(O)c1cccc(NC=CC(=O)c2ccc([N+](=O)[O-])cc2)c1 [5j]
(R) O=C(/C=C\Nc1ccccc1C(=O)O)c1ccc2ccccc2c1 [5e]
(S) O=C(O)c1ccc(NC=CC(=O)c2ccc(Br)cc2)cc1 [5o]
q: Ascending by Ki, please. Please respond with the labels ordered as the question requires.
a: P, S, Q, R

(P) O=C(O)c1cccc(NC=CC(=O)c2ccccc2)c1 [5f]
(Q) O=C(O)c1ccc(NC=CC(=O)c2ccccc2)cc1 [5l]
q: Which of the two gives a bigger number for Ki: P or Q ? Indicate your choice by writing its label.
a: P
(P: 9.5 µM, Q: 0.97 µM)

----------
target: hCA II (Homo sapiens, UniProt P00918); construct: gene CA2; experiment: stopped-flow CO2 hydrase assay; format: biochemical
OBSERVABLE: Ki (µM)

Solved entries (count: 4):
O=C(/C=C\Nc1ccccc1C(=O)O)c1ccc(Cl)cc1    32.7
O=C(O)c1ccc(NC=CC(=O)c2ccc(F)cc2)cc1    8.7
O=C(O)c1cccc(NC=CC(=O)c2ccccc2)c1    72.8
O=C(/C=C\Nc1ccccc1C(=O)O)c1ccc(F)cc1    24.3

(A) O=C(O)c1cccc(NC=CC(=O)c2ccc3ccccc3c2)c1
(B) O=C(O)c1ccc(NC=CC(=O)c2ccc(Br)cc2)cc1
q: Which value of Ki is smaller, the one for A or the one for B ? Lab log: write the label of the selected item as the result.
a: B

----------
target: hCA I (Homo sapiens, UniProt P00915); construct: gene CA1; cytosolic isoform; test: stopped-flow CO2 hydrase assay; type: biochemical
Sequence (P00915 2-261): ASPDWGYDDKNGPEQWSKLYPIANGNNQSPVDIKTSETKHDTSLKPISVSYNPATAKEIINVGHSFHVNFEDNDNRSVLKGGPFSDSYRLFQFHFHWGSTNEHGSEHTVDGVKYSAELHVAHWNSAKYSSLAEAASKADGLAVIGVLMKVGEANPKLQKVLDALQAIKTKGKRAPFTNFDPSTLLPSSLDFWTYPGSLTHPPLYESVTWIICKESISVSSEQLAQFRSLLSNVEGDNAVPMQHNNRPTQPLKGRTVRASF
OBSERVABLE: Ki

Observe how each entry below is paired with its result.
O=C(O)c1cccc(NC=CC(=O)c2ccc(Cl)cc2)c1 [5h]    > 100 µM
O=C(O)c1cccc(NC=CC(=O)c2ccccc2)c1 [5f]    > 100 µM
O=C(O)c1cccc(NC=CC(=O)c2ccc(F)cc2)c1 [5g]    > 100 µM
O=C(/C=C\Nc1ccccc1C(=O)O)c1ccc2ccccc2c1 [5e]    > 100 µM

q: Using the record for O=C(O)c1ccc(NC=CC(=O)c2ccc([N+](=O)[O-])cc2)cc1 [5p] , report its Ki.
a: 95.6 µM

q: // lookup Ki for O=C(O)c1cccc(NC=CC(=O)c2ccc(Br)cc2)c1 [5i]
a: > 100 µM

q: // lookup Ki for O=C(/C=C\Nc1ccccc1C(=O)O)c1ccc(F)cc1 [5b]
a: > 100 µM

q: Look up Ki: O=C(O)c1cccc(NC=CC(=O)c2ccc([N+](=O)[O-])cc2)c1 [5j]
a: > 100 µM

q: Would you kindly share the measured Ki for O=C(/C=C\Nc1ccccc1C(=O)O)c1ccc(Cl)cc1 [5c] ?
a: > 100 µM

q: Quick one: Ki for O=C(O)CNC(=O)c1ccc(N/C=C/C(=O)c2ccc3ccccc3c2)cc1 [12c] ?
a: > 100 µM

q: For the molecule shown here, O=C(/C=C\Nc1ccccc1C(=O)O)c1ccccc1 [5a] , give the reported Ki.
a: > 100 µM

q: Please look up its Ki: O=C(O)c1ccc(NC=CC(=O)c2ccc(Br)cc2)cc1 [5o]
a: > 100 µM

q: # lookup: Ki of O=C(O)c1ccc(NCCC(=O)c2ccccc2)cc1 [7b]
a: 63.8 µM

q: # Ki lookup, item O=C(O)CNC(=O)c1ccc(N/C=C/C(=O)c2ccc(Br)cc2)cc1 [12b]
a: > 100 µM

q: Sample O=C(O)c1ccc(NC=CC(=O)c2ccc(F)cc2)cc1 [5m] — what was its Ki?
a: 68.8 µM

q: # get_value(readout='Ki', item= O=C(O)c1ccc(NC=CC(=O)c2ccc3ccccc3c2)cc1 [5q] )
a: 79.4 µM

q: I would be grateful if you could share the reported Ki for O=C(/C=C\Nc1ccccc1C(=O)O)c1ccc([N+](=O)[O-])cc1 [5d] .
a: > 100 µM

q: Requested read-out: Ki. Entry: O=C(O)c1ccc(NC=CC(=O)c2ccc(Cl)cc2)cc1 [5n]
a: 81.5 µM

----------
Target: hCA II (Homo sapiens, UniProt P00918)
Construct: gene CA2
Experiment: stopped-flow CO2 hydrase assay
Format: biochemical
From the text: stopped-flow CO2 hydrase assay on hCA II
OBSERVABLE: Ki (µM)

Some solved entries appear below for comparison.
O=C(O)c1ccc(NC=CC(=O)c2ccccc2)cc1    9.8
O=C(O)c1cccc(NC=CC(=O)c2ccc(F)cc2)c1    68.2

(P) O=C(/C=C\Nc1ccccc1C(=O)O)c1ccccc1
(Q) O=C(O)c1ccc(NC=CC(=O)c2ccc3ccccc3c2)cc1
(R) O=C(O)c1ccc(NC=CC(=O)c2ccc([N+](=O)[O-])cc2)cc1
(S) O=C(O)c1cccc(NC=CC(=O)c2ccc(Br)cc2)c1
q: Please order the records by their reported Ki, lowest number first. Answer with the labels in sequence, matching the requested order.
a: Q, R, P, S
(Q: 7.4 µM, R: 12.6 µM, P: 39.4 µM, S: 81.4 µM)

----------
target: hCA II (Homo sapiens, UniProt P00918); construct: gene CA2; test: stopped-flow CO2 hydrase assay; format: biochemical
OBSERVABLE: Ki (µM)

(A) O=C(/C=C\Nc1ccccc1C(=O)O)c1ccc2ccccc2c1
(B) O=C(O)c1cccc(NC=CC(=O)c2ccc(Cl)cc2)c1
q: Problem: Given the entries A and B , determine which has the lower reported Ki. Indicate your choice by writing its label.
a: A

----------
target: hCA XII (Homo sapiens, UniProt O43570); construct: gene CA12; trans-membrane isoform; experiment: stopped-flow CO2 hydrase assay; assay type: biochemical
Sequence (O43570 30-289 limits assumed): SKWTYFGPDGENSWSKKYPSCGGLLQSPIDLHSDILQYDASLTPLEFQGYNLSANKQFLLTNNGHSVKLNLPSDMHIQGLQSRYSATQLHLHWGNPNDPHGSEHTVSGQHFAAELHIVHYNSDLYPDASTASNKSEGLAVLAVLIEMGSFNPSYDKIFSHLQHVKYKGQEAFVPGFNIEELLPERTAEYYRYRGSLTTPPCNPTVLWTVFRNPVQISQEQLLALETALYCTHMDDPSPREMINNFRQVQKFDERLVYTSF
OBSERVABLE: Ki (µM)

Some solved cases for reference:
O=C(O)c1ccc(NCCC(=O)c2ccccc2)cc1 [7b]    9.1
O=C(/C=C\Nc1ccccc1C(=O)O)c1ccc([N+](=O)[O-])cc1 [5d]    7.8
O=C(O)c1ccc(NC=CC(=O)c2ccc(Cl)cc2)cc1 [5n]    4.6
O=C(O)c1cccc(NC=CC(=O)c2ccc(F)cc2)c1 [5g]    10.3
O=C(O)c1cccc(NC=CC(=O)c2ccc3ccccc3c2)c1 [5k]    9.7

(P) O=C(O)c1ccc(NC=CC(=O)c2ccc3ccccc3c2)cc1 [5q]
(Q) O=C(/C=C\Nc1ccccc1C(=O)O)c1ccc(Cl)cc1 [5c]
(R) O=C(/C=C\Nc1ccccc1C(=O)O)c1ccc(F)cc1 [5b]
q: Order the records so the highest Ki appears first and the lowest last. Write the labels in rank order as requested.
a: Q, R, P

----------
biological target: hCA IX (Homo sapiens, UniProt Q16790); construct: gene CA9; trans-membrane isoform; assay: stopped-flow CO2 hydrase assay; type: biochemical
OBSERVABLE: Ki (µM)

O=C(/C=C\Nc1ccccc1C(=O)O)c1ccc2ccccc2c1    19.3
O=C(O)c1cccc(NC=CC(=O)c2ccccc2)c1    15.9
O=C(O)c1ccc(NC=CC(=O)c2ccc(Br)cc2)cc1    5.6

(a) O=C(O)c1cccc(NCCC(=O)c2ccccc2)c1
(b) O=C(O)c1cccc(NC=CC(=O)c2ccc3ccccc3c2)c1
(c) O=C(O)c1ccc(NC=CC(=O)c2ccccc2)cc1
q: Sequence the entries by Ki, beginning with the highest number. The response must list the labels following the requested ordering.
a: a, b, c
(a: 23.7 µM, b: 11.4 µM, c: 1.2 µM)

(P) O=C(O)c1cccc(NC=CC(=O)c2ccc([N+](=O)[O-])cc2)c1
(Q) O=C(O)c1cccc(NC=CC(=O)c2ccc(F)cc2)c1
(R) O=C(O)c1ccc(NC=CC(=O)c2ccc(Cl)cc2)cc1
(S) O=C(O)c1ccc(NC=CC(=O)c2ccc(F)cc2)cc1
(T) O=C(/C=C\Nc1ccccc1C(=O)O)c1ccc([N+](=O)[O-])cc1
q: Sort the molecules on Ki; start with the lowest figure. Write the labels, ordered according to the request.
a: S, R, Q, T, P
(S: 0.92 µM, R: 3.4 µM, Q: 9.6 µM, T: 14.1 µM, P: 24.7 µM)

(A) O=C(/C=C\Nc1ccccc1C(=O)O)c1ccccc1
(B) O=C(O)c1cccc(NC=CC(=O)c2ccc(Cl)cc2)c1
q: API: POST /compare with A and B ; response names the item with higher Ki. Lab note: record the label of whichever item you select.
a: B

(A) O=C(O)c1cccc(NC=CC(=O)c2ccc(Br)cc2)c1
(B) O=C(/C=C\Nc1ccccc1C(=O)O)c1ccc(Cl)cc1
(C) O=C(O)c1ccc(NCCC(=O)c2ccccc2)cc1
(D) O=C(O)c1ccc(NC=CC(=O)c2ccc([N+](=O)[O-])cc2)cc1
(E) O=C(O)c1ccc(NC=CC(=O)c2ccc3ccccc3c2)cc1
q: Descending sort on Ki required. Your answer should be the labels, listed in the requested order.
a: A, B, C, D, E
(A: 32.5 µM, B: 17.7 µM, C: 8.3 µM, D: 4.1 µM, E: 0.76 µM)

The measurements presented in this section are drawn from paper PMC9466612.
